target: Neutrophil elastase (Homo sapiens, UniProt P08246); assay: The compound was evaluated in vitro for the inhibition of human leukocyte elastase(HLE)
Sequence (P08246 whole entry): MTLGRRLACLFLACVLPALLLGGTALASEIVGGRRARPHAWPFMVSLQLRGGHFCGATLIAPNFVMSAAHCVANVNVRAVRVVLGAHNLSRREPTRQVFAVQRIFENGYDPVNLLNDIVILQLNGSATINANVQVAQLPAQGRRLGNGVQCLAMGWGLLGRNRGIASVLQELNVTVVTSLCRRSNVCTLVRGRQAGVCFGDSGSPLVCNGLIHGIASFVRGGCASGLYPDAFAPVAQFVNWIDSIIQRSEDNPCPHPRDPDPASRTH
measuredQuantity: IC50 (µM)

molecule=CO[C@@H]1C(=O)N(C(C)=O)[C@@H]1c1ccccc1 quantitativeresult=1.6
molecule=CO[C@@H]1C(=O)N(C(C)=O)[C@@H]1C(C)=O quantitativeresult=94
molecule=CCCC[C@@H]1C(=O)N(C(C)=O)[C@@H]1/C(C)=C/c1ccccc1 quantitativeresult=43
molecule=CO[C@@H]1C(=O)N(C(C)=O)[C@@H]1/C(C)=C/c1ccccc1 quantitativeresult=1.4
molecule=CCCC[C@@H]1C(=O)N(C(C)=O)[C@@H]1C(C)=O quantitativeresult=45
molecule="CCCC[C@@H]1C(=O)N([C@@H](C2SCCCS2)C2OC(C)(C)OC2C2COC(C)(C)O2)[C@@H]1/C(C)=C/c1ccccc1 (stereo not given in full)" quantitativeresult=11
molecule="CO[C@@H]1C(=O)N([C@@H](C2SCCCS2)C2OC(C)(C)OC2C2COC(C)(C)O2)[C@@H]1/C(C)=C/c1ccccc1 (stereo not given in full)" quantitativeresult=18
molecule="CO[C@H]1C(=O)N([C@@H](C2SCCCS2)C2OC(C)(C)OC2C2COC(C)(C)O2)[C@H]1/C=C/c1ccccc1 (stereo not given in full)" quantitativeresult=76
molecule="CCCC[C@H]1C(=O)N([C@@H](C2SCCCS2)C2OC(C)(C)OC2C2COC(C)(C)O2)[C@H]1/C(C)=C/c1ccccc1 (stereo not given in full)" quantitativeresult=13
molecule=O=c1oc(Cl)c(Cl)c2ccccc12 quantitativeresult=0.1

Hello, the source for this data is ChEMBL document CHEMBL1127150, in case you need it.
